# Test system: HCV RNA replication (HCV subgenomic replicon in MP-1 cells)
# protocol details: Cell-Based HCV RNA Replication Luciferase Reporter Assay
# condition summary: Hepatitis C virus, 72 h
quantity measured: pEC50
Scale note: pEC50 = -log10(concentration in M).

Incoming: Give the reported pEC50 for CC(C)(C)C(=O)OCOP(=O)(OCOC(=O)C(C)(C)C)OC[C@H]1O[C@@H](c2ccc3c(N)ncnn23)[C@](C)(O)[C@@H]1O (system: HCV RNA replication (HCV subgenomic replicon in MP-1 cells)).
Outgoing: 5.42

---

# protocol details: Pharmacokinetics in monkeys
# Format: in vivo, cynomolgus monkeys
# condition summary: cynomolgus monkey, plasma, single iv (2 mg/kgBW) or oral dose (5 mg/kgBW), read-out: t1/2 (terminal elimination half-life) (converted)
quantity measured: half-life (h)
Dear colleague, please return just the value in h, with no unit written.

Incoming: Consider the compound shown here: C[C@@]1(O)[C@H](O)[C@@H](CO)O[C@H]1c1ccc2c(N)ncnn12 What is its recorded half-life?
Outgoing: 4.3

All figures here come from patent US8415309B2.
